Tested on: morningglory
protocolSummary: Test B pre/postemergence morningglory
Format: in vivo, Ipomoea hederacea
conditionSummary: Preemergence, Rate 125 g/ha; scale 0 to 10, 0 is no effect, 10 is complete control
experimentalEndpoint: Morningglory plant response rating

Worked cases, answers included:
itemSmiles: CC(C)N(C(=O)n1oc(=O)n(C[Si](C)(C)C)c1=O)c1ccc(F)cc1F
measuredTarget: morningglory
Morningglory plant response rating: 0
//
itemSmiles: CC(C)N(C(=O)n1oc(=O)n(CCCNC(=O)CCl)c1=O)c1ccccc1
measuredTarget: morningglory
Morningglory plant response rating: 0
//
itemSmiles: CC(=O)OCCCCn1c(=O)on(C(=O)N(c2ccc(F)cc2F)C(C)C)c1=O
measuredTarget: morningglory
Morningglory plant response rating: 0

Turning to the following compound.
Morningglory plant response rating for COCn1c(=O)on(C(=O)N(c2ccc(F)cc2F)C(C)C)c1=O is 2

Values were extracted from patent US6737383B1.
